# STUDY_TARGET: F508delCFTR (Homo sapiens, UniProt P13569, DEL508-508)
# Construct: expressed in transfected cells; host or cells: CFBE41o- human lung-derived epithelial cells (CFBE41o-F508delCFTR-HRP), doxycycline-inducible
# Sequence (P13569 with tags, fused parts or gaps DEL508-508): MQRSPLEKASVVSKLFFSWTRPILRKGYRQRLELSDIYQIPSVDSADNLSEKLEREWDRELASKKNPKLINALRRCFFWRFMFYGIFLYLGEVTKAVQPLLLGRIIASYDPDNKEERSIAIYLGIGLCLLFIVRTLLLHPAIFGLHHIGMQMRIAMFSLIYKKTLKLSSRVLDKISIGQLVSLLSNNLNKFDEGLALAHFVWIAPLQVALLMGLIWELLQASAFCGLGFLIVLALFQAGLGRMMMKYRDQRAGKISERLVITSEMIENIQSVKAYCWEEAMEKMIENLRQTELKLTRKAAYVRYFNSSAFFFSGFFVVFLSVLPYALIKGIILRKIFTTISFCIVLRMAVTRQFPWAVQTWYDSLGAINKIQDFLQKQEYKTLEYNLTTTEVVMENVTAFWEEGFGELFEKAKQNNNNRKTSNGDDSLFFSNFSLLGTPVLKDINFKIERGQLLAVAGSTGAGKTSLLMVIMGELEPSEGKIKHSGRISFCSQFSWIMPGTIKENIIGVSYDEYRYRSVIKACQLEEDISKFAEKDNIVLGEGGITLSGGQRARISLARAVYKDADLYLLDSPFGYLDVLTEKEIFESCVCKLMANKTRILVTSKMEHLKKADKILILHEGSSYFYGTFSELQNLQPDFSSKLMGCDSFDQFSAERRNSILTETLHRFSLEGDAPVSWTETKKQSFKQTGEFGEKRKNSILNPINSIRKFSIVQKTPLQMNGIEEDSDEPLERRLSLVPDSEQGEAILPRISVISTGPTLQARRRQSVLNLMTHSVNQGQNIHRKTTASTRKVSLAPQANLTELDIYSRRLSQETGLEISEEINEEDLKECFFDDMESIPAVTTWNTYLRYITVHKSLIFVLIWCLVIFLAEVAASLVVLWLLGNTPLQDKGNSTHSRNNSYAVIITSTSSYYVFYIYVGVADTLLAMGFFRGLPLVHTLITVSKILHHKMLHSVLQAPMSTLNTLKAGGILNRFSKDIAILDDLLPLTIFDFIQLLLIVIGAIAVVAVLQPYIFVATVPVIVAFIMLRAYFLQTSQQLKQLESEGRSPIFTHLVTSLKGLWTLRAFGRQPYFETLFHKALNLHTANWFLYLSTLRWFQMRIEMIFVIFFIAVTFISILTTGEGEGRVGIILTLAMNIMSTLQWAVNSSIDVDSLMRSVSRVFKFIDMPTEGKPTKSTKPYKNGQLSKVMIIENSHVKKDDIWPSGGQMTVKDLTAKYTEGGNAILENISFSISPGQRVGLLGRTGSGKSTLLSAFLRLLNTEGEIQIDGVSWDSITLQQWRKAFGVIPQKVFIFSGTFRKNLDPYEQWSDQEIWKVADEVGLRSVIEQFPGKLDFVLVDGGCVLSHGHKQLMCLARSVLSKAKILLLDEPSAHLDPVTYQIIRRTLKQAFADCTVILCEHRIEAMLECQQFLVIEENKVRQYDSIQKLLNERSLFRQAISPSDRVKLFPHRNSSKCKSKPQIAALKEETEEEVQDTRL
# MEASUREMENT_DESCRIPTION: Cell Surface Expression-Horse Radish Peroxidase (CSE-HRP) assay, test compound without co-corrector;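 note: percent of on-plate 2 µM positive control corrector response over DMSO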
# Type: cell-based
# CONDITION_SET: maximum at any tested concentration, normalized to positive control, without co-corrector

>  <COMPOUND>
O=C(NS(=O)(=O)c1cccc2ccccc12)C1CCCc2c1ccc1c2OCO1 (stereo not shown)

>  <Emax>
≥ 150%

$$$$
>  <COMPOUND>
COc1ccc(C(F)(F)F)c2c1[C@H](C(=O)NS(=O)(=O)c1cccc3nc(C)ccc13)CC2

>  <Emax>
≥ 150%

$$$$
>  <COMPOUND>
COc1cccc2c1CCC2C(=O)NS(=O)(=O)c1ccccc1C(=O)OC(C)C (stereo not shown)

>  <Emax>
50 to 150%

$$$$
>  <COMPOUND>
Cc1ccccc1S(=O)(=O)NC(=O)C1CCc2c(OC(C)C)cccc21 (stereo not shown)

>  <Emax>
50 to 150%

$$$$

---

# STUDY_TARGET: F508delCFTR (Homo sapiens, UniProt P13569, DEL508-508)
# Construct: expressed in transfected cells; host or cells: CFBE41o- human lung-derived epithelial cells (CFBE41o-F508delCFTR-HRP), doxycycline-inducible
# MEASUREMENT_DESCRIPTION: Cell Surface Expression-Horse Radish Peroxidase (CSE-HRP) assay, test compound without co-corrector;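 note: percent of on-plate 2 µM positive control corrector response over DMSO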
# Type: cell-based
# CONDITION_SET: maximum at any tested concentration, normalized to positive control, without co-corrector
Documented Emax across a set of compounds
PARAMETER_MEASURED: Emax

>  <COMPOUND>
CC(C)Oc1ccc(Br)c2c1C(C(=O)NS(=O)(=O)c1cccc3ccccc13)CC2 (stereo not shown) [Example I-54]

>  <TEST_VALUE>
≥ 150%

$$$$
>  <COMPOUND>
O=C(NS(=O)(=O)c1cccc2ccccc12)C1(Cc2ccc(Cl)nc2)CCc2c(Cl)cccc21 (stereo not shown) [Example I-36]

>  <TEST_VALUE>
50 to 150%

$$$$
>  <COMPOUND>
COc1ccc(Br)c2c1CCCC2C(=O)NS(=O)(=O)c1cccc2ncccc12 (stereo not shown) [Example I-56]

>  <TEST_VALUE>
≥ 150%

$$$$
>  <COMPOUND>
COc1ccc(Br)c2c1CCC[C@@H]2C(=O)NS(=O)(=O)c1cccc2ccccc12 [Example I-48]

>  <TEST_VALUE>
≥ 150%

$$$$

---

# STUDY_TARGET: F508delCFTR (Homo sapiens, UniProt P13569, DEL508-508)
# Construct: expressed in transfected cells; host or cells: CFBE41o- human lung-derived epithelial cells (CFBE41o-F508delCFTR-HRP), doxycycline-inducible
# MEASUREMENT_DESCRIPTION: Cell Surface Expression-Horse Radish Peroxidase (CSE-HRP) assay, test compound with co-corrector;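 note: percent of 2 µM positive control corrector over DMSO; co-corrector is that same compound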
# Type: cell-based
# CONDITION_SET: maximum at any tested concentration, normalized to positive control, with 2 μM co-corrector

>  <COMPOUND>
CCC1(C(=O)NS(=O)(=O)c2ccc(Br)c3ccccc23)CCc2c(Cl)cccc21 (stereo not drawn)

>  <Maximum % activity (with co-corrector)>
++ (≥150 and <350)

$$$$
>  <COMPOUND>
COc1ccc(OC)c2c1CC[C@H]2C(=O)NS(=O)(=O)c1cccc2ncccc12

>  <Maximum % activity (with co-corrector)>
+++ (≥350)

$$$$
>  <COMPOUND>
COc1cccc2c1CCC2C(=O)NS(=O)(=O)c1c(C)nn(C)c1C (stereo not drawn)

>  <Maximum % activity (with co-corrector)>
+ (<150)

$$$$
>  <COMPOUND>
CCC1(C(=O)NS(=O)(=O)c2cccc3c(C4CCC4)cccc23)CCc2c(C3CCC3)cccc21 (stereo not drawn)

>  <Maximum % activity (with co-corrector)>
++ (≥150 and <350)

$$$$
>  <COMPOUND>
COc1cccc2c1CCC2C(=O)NS(=O)(=O)c1ccc(N2CCN(CC[C@@H]3OCCc4ccccc43)CC2)cc1 (stereo partly drawn)

>  <Maximum % activity (with co-corrector)>
+ (<150)

$$$$
>  <COMPOUND>
COc1cccc2c1CCC2C(=O)NS(=O)(=O)c1ccc(NC(=O)CC(C)=O)cc1 (stereo not drawn)

>  <Maximum % activity (with co-corrector)>
+ (<150)

$$$$
>  <COMPOUND>
COc1cccc2c1CCC[C@H]2C(=O)NS(=O)(=O)c1ccccc1C

>  <Maximum % activity (with co-corrector)>
+++ (≥350)

$$$$
>  <COMPOUND>
COc1cc2c(c(OC)c1)C(C(=O)NS(=O)(=O)c1cccc3ccccc13)CCC2 (stereo not drawn)

>  <Maximum % activity (with co-corrector)>
+++ (≥350)

$$$$
>  <COMPOUND>
C[C@]1(C(=O)NS(=O)(=O)c2cccc3ccccc23)CCc2c1ccc1c2OCO1

>  <Maximum % activity (with co-corrector)>
+++ (≥350)

$$$$
>  <COMPOUND>
CCC1(C(=O)NS(=O)(=O)c2cccc3c2CCCC3)CCc2c(Cl)cccc21 (stereo not drawn)

>  <Maximum % activity (with co-corrector)>
++ (≥150 and <350)

$$$$
>  <COMPOUND>
COc1cccc2c1CCC2C(=O)NS(=O)(=O)c1c(C)noc1C (stereo not drawn)

>  <Maximum % activity (with co-corrector)>
+ (<150)

$$$$
>  <COMPOUND>
CCc1ccccc1S(=O)(=O)NC(=O)C1CCc2c(Cl)cccc21 (stereo not drawn)

>  <Maximum % activity (with co-corrector)>
++ (≥150 and <350)

$$$$
>  <COMPOUND>
COc1cccc2c1CCC2C(=O)NS(=O)(=O)c1cccc2ccccc12 (stereo not drawn)

>  <Maximum % activity (with co-corrector)>
+++ (≥350)

$$$$
>  <COMPOUND>
CCC1(C(=O)NS(=O)(=O)c2cccc3ccn(C)c23)CCc2c(Cl)cccc21 (stereo not drawn)

>  <Maximum % activity (with co-corrector)>
+++ (≥350)

$$$$
>  <COMPOUND>
O=C(NS(=O)(=O)c1cccc2ccccc12)[C@@H]1CCCc2cccc(Cl)c21

>  <Maximum % activity (with co-corrector)>
+++ (≥350)

$$$$
>  <COMPOUND>
COc1ccc(C2CCC2)c2c1[C@@H](C(=O)NS(=O)(=O)c1cccc3c1CCCN3)CC2

>  <Maximum % activity (with co-corrector)>
+++ (≥350)

$$$$
>  <COMPOUND>
COc1ccc(C2CCC2)c2c1[C@H](C(=O)NS(=O)(=O)c1cccn3nccc13)CC2

>  <Maximum % activity (with co-corrector)>
+++ (≥350)

$$$$
>  <COMPOUND>
COc1cccc2c1CCC2C(=O)NS(=O)(=O)c1ccc(Cl)cc1 (stereo not drawn)

>  <Maximum % activity (with co-corrector)>
+ (<150)

$$$$
